Data origin, for the record: paper PMC5540273

tested on: YSK1; construct: gene STK25; conditions: concentration: 1 μM, replicates: in singlicate; n = 1;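 also: KINOMEscan kinase panel screen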
Please note: %Inh exactly at 10% is Condition not met. Only values below 10% get Condition met.

COMPOUND | CAT
CS(=O)(=O)CCNCc1nc(-c2ccc3ncnc(Nc4ccc(OCc5ccccc5)c(Cl)c4)c3c2)cs1.Cl [GW582764] | Condition met
O=c1cc(N2CCOCC2)nc2n(Cc3cccc(Cl)c3Cl)c3ccccc3n12 [GSK2299009] | Condition not met

Query string: # strict comparison: is reported %Inh < 10%? input = Cc1ccc(NC(=O)Nc2ccc(Cl)c(C(F)(F)F)c2)cc1-c1ccc(C(=O)Nc2ccncc2)cc1 [GSK1398470]
Result string: Condition met

Query string: # strict comparison: is reported %Inh < 10%? input = CCn1c(-c2c(N)noc2C)nc2cnccc21 [SB-737856]
Result string: Condition not met

Query string: # strict comparison: is reported %Inh < 10%? input = CNC(=O)c1ccc(C)c(-n2c(C)cc(OCc3ccc(F)cc3F)c(Br)c2=O)c1
Result string: Condition met

Query string: # strict comparison: is reported %Inh < 10%? input = Cc1c(Cn2c3ccccc3n3c(=O)cc(N4CCOCC4)nc23)cccc1C(F)(F)F [GSK2306394]
Result string: Condition met

Query string: # strict comparison: is reported %Inh < 10%? input = CC(C)c1cc(-c2ccc3c(N)n[nH]c3c2)nc(N)n1 [GSK2250882]
Result string: Condition not met

Query string: # strict comparison: is reported %Inh < 10%? input = COc1cc2ncnc(Nc3cccc(Br)c3)c2cc1OC.Cl [GI230329]
Result string: Condition met

Query string: # strict comparison: is reported %Inh < 10%? input = Cc1ccc(-c2nc(Nc3ccncc3)c3ccccc3n2)s1 [GSK189015]
Result string: Condition met

###

tested on: ROCK1; settings: concentration: 1 μM, replicates: in singlicate; n = 1
Please go through the items and note down their %Inh.
Numbers only, in %.

Reference set (2 entries):
COMPOUND | SYSTEM UNDER TEST | %Inh, %
Cc1nccc(-c2c(-c3ccc(F)cc3)ncn2CCCN2CCOCC2)n1.Cl | ROCK1 | 0
COc1ccc(CSc2nnc(-c3ccc4nccn4c3)o2)cc1C(F)(F)F | ROCK1 | 14

For each entry beneath this line, provide reported %Inh.
1. Cc1ccccc1Cn1ccn2c(=O)cc(N3CCOCC3)nc12
2. CC(=O)c1c(C)c2cnc(Nc3ccn(C)n3)nc2n(C2CCCC2)c1=O
3. NS(=O)(=O)c1cccc(N/C=C2\C(=O)Nc3ccc(S(=O)(=O)Cc4c(Cl)cccc4Cl)cc32)c1
4. CCCCc1nn2ncccc2c1-c1ccnc(NC2CC2)n1
5. CCn1c(-c2c(N)noc2C)nc2cnccc21
6. COc1ccc(Nc2nccc(N3CCC(NC(=O)C(C)c4ccc(Cl)cc4)C3)n2)cc1 (centres unmarked)

Result string:
1. 0
2. 0
3. 0
4. 0
5. 0
6. 11

###

test system: YANK1; construct: gene STK32A; conditions: concentration: 1 μM, replicates: in singlicate; n = 1
Please note: %Inh exactly at 8% is not satisfied. Only values below 8% get satisfied.

Sample answers from the record:
MOLECULE | CAT
COc1ccc(CSc2nnc(-c3ccc4c(c3)CCO4)o2)cc1 | satisfied
CS(=O)(=O)Cc1ccc(Nc2nccc(-c3c(-c4cccc(NC(=O)C5CCCCC5)c4)nn4ncccc34)n2)cc1 [GSK350559] | not satisfied
O=C1NC(=O)C(c2ccc(Cl)cc2)=C1Nc1cccc(Cl)c1 [SB-317651] | satisfied
c1ccc(-c2ccnc3[nH]ccc23)cc1 [SB-693578] | satisfied
O=C(Nc1n[nH]c2nc(-c3cccs3)c(Br)cc12)C1CCCC1 [SB-743341] | not satisfied
COc1ccc(-c2coc3ccc(-c4nnc(C)o4)cc23)cc1 | satisfied

Query string: # strict comparison: is reported %Inh < 8%? input = Cn1cncc1-c1cc2c(Nc3ccc(OCc4ccccc4)cc3)ncnc2cn1 [GW281179]
Result string: satisfied

Query string: # strict comparison: is reported %Inh < 8%? input = COc1ccc2cc(-c3nc(-c4ccccc4C(C)C)[nH]c3-c3ccncc3)ccc2c1 [SB-660566]
Result string: not satisfied

Query string: # strict comparison: is reported %Inh < 8%? input = Cn1cncc1C(=O)NC1CCN(c2ccnc(Nc3ccc(F)cc3)n2)C1 (centres unmarked) [GSK1379717]
Result string: satisfied

Query string: # strict comparison: is reported %Inh < 8%? input = Cc1ccc(-c2nc(Nc3ccncc3)c3ccccc3n2)s1 [GSK189015]
Result string: not satisfied

###

Please go through the items and note down their %Inh.
tested on: AKT2; settings: concentration: 1 μM, replicates: in singlicate; n = 1
Answers are plain numbers, in %.

Reference set (5 entries):
COMPOUND | RESULT UNIT | READING
Cc1ccc(NC(=O)Nc2ccc(Cl)cc2)cc1-c1ccc(C(=O)Nc2ccncc2)cc1 | % | 0
Cn1cncc1C(=O)NC1CCN(c2ccnc(Nc3ccc(F)cc3)n2)C1 (stereo not drawn) | % | 0
COc1ccc(Nc2nccc(N3CCC(NC(=O)C(C)c4ccc(Cl)cc4)CC3)n2)cc1 (stereo not drawn) | % | 0
COC(=O)C(Cc1ccccc1)NC(=O)NC1CCN(c2ccnc(Nc3ccc(F)cc3)n2)C1 (stereo not drawn) | % | 0
O=C(Nc1n[nH]c2nc(-c3cccs3)c(Br)cc12)C1CCCC1 | % | 40

For each entry beneath this line, provide reported %Inh.
1. Fc1ccc(-c2nc[nH]c2-c2ccncc2)cc1
2. CCn1c(-c2c(N)noc2C)nc2cnccc21

Result string:
0
18

###

Please go through the items and note down their %Inh.
system: FGFR1; conditions: concentration: 1 μM, replicates: in singlicate; n = 1
Answers are plain numbers, in %.

COMPOUND | %Inh (%)
Fc1ccc(-c2nc3n(c2-c2ccncc2)CCS3)cc1 | 0
CC(=O)c1cccc(NC(=O)NC2CCN(c3ccnc(Nc4ccc(F)cc4)n3)C2)c1 (stereo not drawn) | 0
Fc1ccc(-c2nn3cccc(F)c3c2-c2ccncc2)cc1 | 23
CS(=O)(=O)CCNCc1nc(-c2ccc3ncnc(Nc4ccc(OCc5ccccc5)c(Cl)c4)c3c2)cs1.Cl | 0
Cc1ccc(NC(=O)c2ccc(Cl)cc2)cc1-c1ccc(C(=O)Nc2ccncc2)cc1 | 0

For each entry beneath this line, provide reported %Inh.
1. CSc1ccc(-c2nc3n(c2-c2ccncc2)CCC3)cc1
2. CNCc1ccc2nc(NC(=O)c3ccc(C(C)(C)C)cc3)cn2c1
3. COc1ccc(CSc2nnc(-c3ccc4nccn4c3)o2)cc1C(F)(F)F
4. COc1cccc(NC(=O)Nc2ccc(C)c(-c3ccc(C(=O)Nc4ccncc4)cc3)c2)c1
5. CCn1c(-c2c(N)noc2C)nc2cnccc21
6. FC(F)(F)c1ccccc1-c1cc(-c2c[nH]nc2-c2ccccn2)ccn1
7. Nc1ncnc2occ(-c3ccc4c(c3)CCN4C(=O)Cc3cc(F)ccc3F)c12

Result string:
[1, 0, 4, 9, 0, 4, 0]

###

test system: MRCKB; construct: gene CDC42BPB; settings: concentration: 1 μM, replicates: in singlicate; n = 1
METRIC: %Inh (%)
Give bare numbers, in %.

For each entry beneath this line, provide reported %Inh.
1. COC(=O)c1cccc(NC(=O)NC2CCN(c3ccnc(Nc4ccc(F)cc4)n3)C2)c1 (stereo not shown) [GSK1379725]
2. O=c1cc(N2CCOCC2)nc2n(Cc3ccccc3F)ccn12 [GSK2297428]
3. CC(=O)c1c(C)c2cnc(Nc3ccn(C)n3)nc2n(C2CCCC2)c1=O
4. O=C1NC(=O)C(c2ccc(Cl)cc2)=C1Nc1cccc(Cl)c1 [SB-317651]

Result string:
1. 0
2. 0
3. 5
4. 0

For each entry beneath this line, provide reported %Inh.
1. Fc1ccc(-c2nc3n(c2-c2ccncc2)CCS3)cc1 [GI98581]
2. CS(=O)(=O)CCNCc1nc(-c2ccc3ncnc(Nc4ccc(OCc5ccccc5)c(Cl)c4)c3c2)cs1.Cl [GW582764]
3. CSc1ccc(-c2nc3n(c2-c2ccncc2)CCC3)cc1 [SKF-105561]

Result string:
1: 25; 2: 0; 3: 0

###

system: CAMK2G; settings: concentration: 1 μM, replicates: in singlicate; n = 1
METRIC: %Inh (%)
Numbers only, in %.

Reference set (4 entries):
COMPOUND | READING
COc1ccc(Nc2nccc(NCCNC(=O)Nc3cc(C)ccc3C)n2)cc1 [GSK1379899] | 0
COc1nccc(-c2c(-c3ccc(F)cc3)ncn2CCCN2CCOCC2)n1 [SB-282852] | 0
Cc1ccc(NC(=O)Nc2ccc(Cl)c(C(F)(F)F)c2)cc1-c1ccc(C(=O)Nc2ccncc2)cc1 [GSK1398470] | 25
CCn1c(-c2ccccc2)nc2cnccc21 [SB-733416] | 0

Query string: So what's the measured %Inh for this one? CCc1ccc(-c2ccc3c(c2)-c2n[nH]cc2S(=O)(=O)N3C)cc1
Result string: 5
